Reported EC50 values follow for various compounds
Test system: SKBR3 Cells
Test: SKBR3 Cell Viability Assay
Assay type: cell-based
Details: 72 hours, CellTiter Glo luminescence, read-out: MCL-1 CV SKBR3 EC50
Answer with a number only, understood to be in nM.

# compound CO[C@H]1/C=C/C[C@H](C)C[S@@](=O)(NC(=O)C2CC(OC(F)F)C2)=NC(=O)c2ccc3c(c2)N(C[C@@H]2CC[C@H]21)C[C@@]1(CCCc2cc(Cl)ccc21)CO3 (some centres unmarked) [Example 431] ; its EC50 = 233

// COc1nn(C2CC2)cc1C(=O)N[S@@]1(=O)=NC(=O)c2ccc3c(c2)N(C[C@@H]2CC[C@H]2[C@@H](OC)/C=C/C[C@H](C)C1)C[C@@]1(CCCc2cc(Cl)ccc21)CO3 [Example 262] : EC50 value = 85.8

Kindly note the recorded EC50 for CO[C@H]1/C=C/CCC[S@@](=O)(NC(=O)CCC(F)(F)F)=NC(=O)c2ccc3c(c2)N(C[C@@H]2CC[C@H]21)C[C@@]1(CCCc2cc(Cl)ccc21)CO3 [Example 94] , which is 902

response.value for CO[C@H]1/C=C/CCC[S@@](=O)(NC(=O)COC2CCOCC2)=NC(=O)c2ccc3c(c2)N(C[C@@H]2CC[C@H]21)C[C@@]1(CCCc2cc(Cl)ccc21)CO3 [Example 105] (field: EC50) = 351

EC50 measured on CO[C@H]1/C=C/C[C@H](C)C[S@@](=O)(NC(=O)N2CC(C#N)C2)=NC(=O)c2ccc3c(c2)N(C[C@@H]2CC[C@H]21)C[C@@]1(CCCc2cc(Cl)ccc21)CO3 [Example 233] = 47.2

----------
System: SKBR3 Cells
Assay: SKBR3 Cell Viability Assay
Assay type: cell-based
Settings: Homo sapiens, SK-BR-3, 72 h, CellTiter Glo luminescence, read-out: MCL-1 CV SKBR3 EC50
metric-name: EC50

Some compounds with known EC50 results, for comparison:
• CO[C@H]1/C=C/C[C@H](C)C[S@@](=O)(NC(=O)NC2CC2)=NC(=O)c2ccc3c(c2)N(C[C@@H]2CC[C@H]21)C[C@@]1(CCCc2cc(Cl)ccc21)CO3 [Example 170] = 210 nM
• CO[C@H]1/C=C/CCC[S@@](=O)(NC(=O)CCc2cocn2)=NC(=O)c2ccc3c(c2)N(C[C@@H]2CC[C@H]21)C[C@@]1(CCCc2cc(Cl)ccc21)CO3 [Example 57] = 596 nM
• CO[C@H]1/C=C/CCC[S@@](=O)(NC(=O)CCc2ccnn2C)=NC(=O)c2ccc3c(c2)N(C[C@@H]2CC[C@H]21)C[C@@]1(CCCc2cc(Cl)ccc21)CO3 [Example 22] = 259 nM
• CCc1nn(C)cc1C(=O)N[S@@]1(=O)=NC(=O)c2ccc3c(c2)N(C[C@@H]2CC[C@H]2[C@@H](OC)/C=C/C[C@H](C)[C@H]1C)C[C@@]1(CCCc2cc(Cl)ccc21)CO3 [Example 188] = 78.3 nM

Now take the following compound into account.
Looking up COc1nn(C)cc1C(=O)N[S@@]1(=O)=NC(=O)c2ccc3c(c2)N(C[C@@H]2CC[C@H]2[C@@H](OC)/C=C/[C@H](OC(=O)c2cn(C)nc2OC)CC1)C[C@@]1(CCCc2cc(Cl)ccc21)CO3 [Example 391] , I found its EC50 recorded as 4560 nM

----------
Collected log10 EC50 values appear next to each entry.
Tested on: SKBR3 Cells
Test: SKBR3 Cell Viability Assay
Assay type: cell-based
Details: 72 hours, CellTiter Glo luminescence, read-out: MCL-1 CV SKBR3 EC50
Field: value | Transform: log10 | Quantity: EC50 | Unit: nM

- CO[C@H]1/C=C/CCC[S@@](=O)(NC(=O)CCCC(F)(F)F)=NC(=O)c2ccc3c(c2)N(C[C@@H]2CC[C@H]21)C[C@@]1(CCCc2cc(Cl)ccc21)CO3 [Example 95]: 3.04
- CO[C@H]1/C=C/C[C@H](C)C[S@@](=O)(NC(=O)N2CC3(CCO3)C2)=NC(=O)c2ccc3c(c2)N(C[C@@H]2CC[C@H]21)C[C@@]1(CCCc2cc(Cl)ccc21)CO3 [Example 230]: 1.67
- CO[C@H]1/C=C/CCC[S@@](=O)(NC(=O)NC2(C(F)(F)F)CC2)=NC(=O)c2ccc3c(c2)N(C[C@@H]2CC[C@H]21)C[C@@]1(CCCc2cc(Cl)ccc21)CO3 [Example 32]: 3.17

Case CO[C@H]1/C=C/CCC[S@@](=O)(NC(=O)CCc2ncsc2C)=NC(=O)c2ccc3c(c2)N(C[C@@H]2CC[C@H]21)C[C@@]1(CCCc2cc(Cl)ccc21)CO3 [Example 101] , SKBR3 Cells, log10 EC50 recorded as 3.41

Measured log10 EC50 (SKBR3 Cells), entry CCN(CC)C(=O)OC1CN(C(=O)N[S@@]2(=O)=NC(=O)c3ccc4c(c3)N(C[C@@H]3CC[C@H]3[C@@H](OC)/C=C/C[C@H](C)C2)C[C@@]2(CCCc3cc(Cl)ccc32)CO4)C1 [Example 226] : 1.85

----------
Target: Recombinant human MCL-1 protein (Homo sapiens (Human))
Sequence (Q07820 171-327): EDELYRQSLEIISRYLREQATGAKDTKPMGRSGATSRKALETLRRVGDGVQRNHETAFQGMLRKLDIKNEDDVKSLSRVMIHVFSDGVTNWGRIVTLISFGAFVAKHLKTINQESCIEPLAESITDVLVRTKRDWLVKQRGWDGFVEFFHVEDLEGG
Assay: MCL-1/Bim Binding AlphaLISA Assay
Conditions: 6×His-Mcl-1 (171-327) and biotinylated-Bim peptide (51-76)
Method: MCL-1/Bim Binding AlphaLISA Assay. Inhibition of the MCL-1 and Bim interaction was measured in the following AlphaLISA assay. Recombinant human MCL-1 protein (C-terminal 6×His Tagged Mcl-1 containing residues 171-327) was generated at Gilead Sciences, Inc. (Foster City, Calif.). […] The AlphaLISA assay was performed in a 384-well Proxiplate in a total volume of 40 μL. […] The reaction plates were then read on an Envision multimode reader (PerkinElmer) using AlphaScreen settings. […]
Measured pIC50, listed per entry.
Bear in mind: pIC50 is minus log10 of a mol/L concentration; give just that figure.

* COc1nn(C)cc1C(=O)N[S@@]1(=O)=NC(=O)c2ccc3c(c2)N(C[C@@H]2CC[C@H]2[C@@H](OC)/C=C/[C@H](OC(=O)c2cn(C)nc2OC)CC1)C[C@@]1(CCCc2cc(Cl)ccc21)CO3 | 9.15
* CCc1nn(C)cc1C(=O)N[S@@]1(=O)=NC(=O)c2ccc3c(c2)N(C[C@@H]2CC[C@H]2[C@@H](OC)/C=C/C[C@H](C)[C@H]1C)C[C@@]1(CCCc2cc(Cl)ccc21)CO3 | 10.16
* CO[C@H]1/C=C/CCC[S@@](=O)(NC(=O)CCc2cocn2)=NC(=O)c2ccc3c(c2)N(C[C@@H]2CC[C@H]21)C[C@@]1(CCCc2cc(Cl)ccc21)CO3 | 9.70

Sample CO[C@H]1/C=C/C[C@H](C)C[S@@](=O)(NC(=O)NC2CC2)=NC(=O)c2ccc3c(c2)N(C[C@@H]2CC[C@H]21)C[C@@]1(CCCc2cc(Cl)ccc21)CO3 ; pIC50 observed: 10.22

----------
Reported log10 EC50 values follow for various molecules
Test system: SKBR3 Cells
Assay: SKBR3 Cell Viability Assay
Assay type: cell-based
Details: 72 hours, CellTiter Glo luminescence, read-out: MCL-1 CV SKBR3 EC50
Experimental: SKBR3 Cell Viability Assay Materials […] The cell viability assay was conducted in a 384-well tissue culture plate (Grenier 781086, Monroe, N.C.) in a total volume of 70 μL. […] Luminescence was read by Envision multimode reader (PerkinElmer). […] Percent inhibition was calculated as followed: % Inhibition=100%*(Well−Neg)/(Pos−Neg) Neg, negative control, DMSO Pos, positive control, 10 μM Puromycin
Base-10 log of EC50, unit nM.

Known results for molecules:
- CCOC1CN(C(=O)N[S@@]2(=O)=NC(=O)c3ccc4c(c3)N(C[C@@H]3CC[C@H]3[C@@H](OC)/C=C/C[C@H](C)C2)C[C@@]2(CCCc3cc(Cl)ccc32)CO4)C1: 1.60
- COC1CCN(C(=O)N[S@@]2(=O)=NC(=O)c3ccc4c(c3)N(C[C@@H]3CC[C@H]3[C@@H](OC)/C=C/C[C@H](C)C2)C[C@@]2(CCCc3cc(Cl)ccc32)CO4)CC1: 1.56
- CO[C@H]1/C=C/CCC[S@@](=O)(NC(=O)CCc2nnc(C)s2)=NC(=O)c2ccc3c(c2)N(C[C@@H]2CC[C@H]21)C[C@@]1(CCCc2cc(Cl)ccc21)CO3: 2.95

Data point: COc1nn(C)cc1C(=O)N[S@@]1(=O)=NC(=O)c2ccc3c(c2)N(C[C@@H]2CC[C@H]2[C@@H](OC(=O)CC(C)C)/C=C/C[C@H](C)C1)C[C@@]1(CCCc2cc(Cl)ccc21)CO3 ; log10 EC50 = 2.73

Input CO[C@H]1/C=C/CCC[S@@](=O)(NC(=O)CCc2csc(C)n2)=NC(=O)c2ccc3c(c2)N(C[C@@H]2CC[C@H]21)C[C@@]1(CCCc2cc(Cl)ccc21)CO3 . Output log10 EC50: 3.32

Numbers sourced from patent US11643400B2.
